Assay: Inhibition of human HSP70 ATPase activity at incubated for 3 hrs by malachite green reagent based HTS analysis
Exercise: for every item that follows, state its recorded pIC50.
Numbers only, as −log10 of the molar value.

{"COMPOUND": "CNc1ccc2nc3ccc(N)cc3[s+]c2c1", "pIC50": 4.96}

Please supply pIC50 for each of the following items, keeping them in order.
1. CN(C)c1ccc2nc3ccc(N(C)C)cc3[s+]c2c1 [METHYLENE BLUE ANHYDROUS]
2. O=c1c(O)c(-c2cc(O)c(O)c(O)c2)oc2cc(O)cc(O)c12

[4.08, 4.92]
